Each entry below carries its recorded IC50.
biological target: human GlyT1c (Homo sapiens (Human), UniProt P48067); assay: [3H]-Glycine uptake into recombinant CHO cells expressing human GlyT1; format: cell-based; conditions: hGlyT1c_5_CHO cells, 200 nM [3H]-glycine
Sequence (P48067 whole entry): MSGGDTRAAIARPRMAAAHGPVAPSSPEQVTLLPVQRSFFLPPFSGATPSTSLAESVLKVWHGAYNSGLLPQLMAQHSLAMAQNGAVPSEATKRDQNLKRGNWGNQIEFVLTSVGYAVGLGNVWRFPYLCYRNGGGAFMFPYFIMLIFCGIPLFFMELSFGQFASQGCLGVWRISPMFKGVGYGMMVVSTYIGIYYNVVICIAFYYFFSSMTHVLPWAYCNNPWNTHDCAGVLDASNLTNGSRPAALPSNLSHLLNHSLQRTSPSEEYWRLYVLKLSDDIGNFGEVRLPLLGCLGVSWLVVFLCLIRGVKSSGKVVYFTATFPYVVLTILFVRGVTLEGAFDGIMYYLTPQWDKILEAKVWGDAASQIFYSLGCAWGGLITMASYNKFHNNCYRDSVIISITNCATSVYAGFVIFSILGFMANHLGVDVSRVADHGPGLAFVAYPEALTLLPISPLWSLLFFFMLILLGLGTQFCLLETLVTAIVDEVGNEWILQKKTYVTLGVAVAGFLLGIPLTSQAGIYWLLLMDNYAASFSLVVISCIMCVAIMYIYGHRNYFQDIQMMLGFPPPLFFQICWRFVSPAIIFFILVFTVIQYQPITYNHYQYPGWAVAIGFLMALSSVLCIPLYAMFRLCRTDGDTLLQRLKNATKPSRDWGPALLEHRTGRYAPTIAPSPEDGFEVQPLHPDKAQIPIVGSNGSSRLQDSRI
Where a name gives a salt, the structure may show the parent alone.

So, CCCNCCCS(=O)(=O)NCCOc1ccc2c(c1)C(C1(c3ccc(Cl)cc3)CCC1)NCC2 (stereo not drawn) ? Its IC50 was ≤ 10 µM

So, CC(C)C(=O)NCCOc1ccc2c(c1)C(C1(c3ccc(Cl)cc3)CCC1)NCC2 (stereo not drawn) ? Its IC50 was ≤ 100 µM

So, CC(C)NS(=O)(=O)CCCOc1ccc2c(c1)C(C1(c3ccc(Cl)cc3)CCC1)NCC2 (stereo not drawn) [Example 117, hydrochloride] ? Its IC50 was ≤ 10 µM

So, CS(=O)(=O)NCCOc1ccc2c(c1)C(C1(c3ccc(Cl)cc3)CCC1)NCC2 (stereo not drawn) ? Its IC50 was ≤ 0.1 µM

So, CCCS(=O)(=O)NCCOc1ccc2c(c1)C(C1(c3ccc(F)cc3)CCC1)N(CC(F)(F)F)CC2 (stereo not drawn) [Example 71, hydrochloride] ? Its IC50 was ≤ 1 µM

So, CCCS(=O)(=O)NCCOc1ccc2c(c1)C(C1(c3ccc(F)cc3)CCC1)N(N)CC2 (stereo not drawn) ? Its IC50 was ≤ 1 µM

So, CCCS(=O)(=O)N1CCN(S(=O)(=O)NCCOc2ccc3c(c2)C(C2(c4ccc(Cl)cc4)CCC2)NCC3)CC1 (stereo not drawn) [Example 56, hydrochloride] ? Its IC50 was ≤ 10 µM

So, O=S(=O)(CCCOc1ccc2c(c1)C(C1(c3ccc(Cl)cc3)CCC1)NCC2)N1CCOCC1 (stereo not drawn) [Example 81, hydrochloride] ? Its IC50 was ≤ 10 µM

Could you now look at the following molecule, please?
So, COc1cccc(S(=O)(=O)NCCOc2ccc3c(c2)C(C2(c4ccc(Cl)cc4)CCC2)NCC3)c1 (stereo not drawn) [Example 19, hydrochloride] ? Its IC50 was ≤ 10 µM
